Exercise: state measured cell viability for each of the molecules provided.
# Tested on: NOMO1
# Assay Summary: cell viability relative to DMSO control; higher = less cytotoxic
# Assay Setup: RPMI 5 mM glucose + 10% FBS; 48 h; 0.569 µM
One number for each entry, in %.

INSERT INTO assay_data (molecule, units_symbol, observed_measurement) VALUES
  ('CN(C)c1nc(Cc2ccc(NC(=O)c3ccc(C(F)(F)F)cc3)cc2)nc(N(C)C)c1CC(=O)O', '%', 95.7),
  ('CN(C)CCCC1(c2ccc(F)cc2)OCc2cc(C#N)ccc21 (centres undefined)', '%', 91.4),
  ('C=CC(=O)Nc1cccc(Sc2nc(Nc3ccc(N4CCN(C)CC4)cc3)ncc2Cl)c1', '%', 109),
  ('NCCCC(N)(C(=O)O)C(F)F (centres undefined)', '%', 125),
  ('O=C(O)c1ccc(O)c2ncc(N3CCOCC3)cc12', '%', 87.5),
  ('CCCCCCNC(=O)N1\C=C(F)/C(=O)NC1=O', '%', 129),
  ('Nc1ccc(C(=O)c2cc3c(ccc4ccccc43)[nH]2)cc1', '%', 101),
  ('CC1(C)SCCN([S+](=O)([O-])c2ccc(OCC#CCO)cc2)[C@H]1C(=O)NO', '%', 93.9);

I need cell viability for every entry listed below, if you could help.
1. Nc1n[nH]c2nnc(-c3c(-c4ccccc4)nn4ccccc34)cc12
2. CCn1nnc2c(N3CCOCC3)nc(-c3ccc(NC(=O)Nc4ccc(C(=O)N5CCN(C)CC5)cc4)cc3)nc21
3. CC(=O)OC[C@@H]1O[C@H]([C@H](OC(C)=O)[C@@H]1OC(C)=O)N2\C=C/C(=O)NC2=O
4. OC1=CC=C(C=C1)C/2=C/C3=C(OC2)C=C(O)C=C3

*A*
133
105
102
104

I need cell viability for every entry listed below, if you could help.
1. C[S+](=O)([O-])Oc1ccc2c(NC(N)=O)c(C(=O)c3ccc(Cl)cc3Cl)oc2c1
2. CN(C)C/C=C/C(=O)Nc1ccc(C(=O)Nc2cccc(Nc3ncc(Cl)c(-c4c[nH]c5ccccc45)n3)c2)cc1
3. Oc1cc(-c2nc(-c3ccccc3)[nH]c2-c2ccncc2)ccc1Cl

*A*
[125, 5.96, 109]

I need cell viability for every entry listed below, if you could help.
1. CC1(C)CC\C2=C(/O1)C3=C(C=CC=C3)C(=O)C2=O
2. Cc1cc(Nc2ncc3c(n2)N(C)C(=O)N(c2cc(NC(=O)c4cccc(C(F)(F)F)c4)ccc2C)C3)n(C)n1
3. COc1cc2c(cc1OC)[C@@H]1Cc3ccc(OC)c(OC)c3CN1CC2
4. C[C@]1(O)CC(C1)C2=NC(=C3[N]2C=CN=C3N)C4=CC5=C(C=C4)C=CC(=N5)C6=CC=CC=C6 (centres undefined)

*A*
90.9
146
97.6
83.5

###

# Test system: P12-Ichikawa
# Assay Summary: cell viability relative to DMSO control; higher = less cytotoxic
# Assay Setup: HPLM + 10% dialyzed FBS; 48 h; 46.1 µM
Reported Metric: cell viability (%)
Answers are plain numbers, in %.

INSERT INTO assay_data (smiles_code, test_system, reported_metric, units_symbol, observed_measurement) VALUES
  ('CCCCc1ccc2[nH]c(NC(=O)OC)nc2c1', 'P12-Ichikawa', 'cell viability', '%', 11),
  ('COCCn1c2c([n+](Cc3cnccn3)c1C)C(=O)c1ccccc1C2=O', 'P12-Ichikawa', 'cell viability', '%', 1.1),
  ('O=C(O)c1cc(O)c2c(c1)C(=O)c1cccc(O)c1C2=O', 'P12-Ichikawa', 'cell viability', '%', 99.9);

I need cell viability for every entry listed below, if you could help.
1. O=C(c1cncc(Br)c1)N1CCC(N2CCCC2)CC1
2. CC(=O)SC[C@@H](C)C(=O)N1CCC[C@H]1C(=O)N[C@@H](Cc1ccccc1)C(=O)O
3. C=CC(=O)Nc1cccc(Sc2nc(Nc3ccc(N4CCN(C)CC4)cc3)ncc2Cl)c1

*A*
[89.9, 94.1, 22.2]

I need cell viability for every entry listed below, if you could help.
1. C[C@]12CC[C@H]3[C@@H](CC(=C)\C4=C\C(=O)\C=C/[C@]34C)[C@@H]1CCC2=O
2. Cc1cc(Nc2ncc3c(n2)N(C)C(=O)N(c2cc(NC(=O)c4cccc(C(F)(F)F)c4)ccc2C)C3)n(C)n1

*A*
1. 79.9
2. 7.23

I need cell viability for every entry listed below, if you could help.
1. COc1c(Cl)cc2c([nH]c3cnccc32)c1NC(=O)c1cccnc1C
2. C[C@@H]1[C@H]\2[C@H](O)[C@H]3[C@H](N(C)C)\C(=C(C(N)=O)/C(=O)[C@@]3(O)\C(=C2C(=O)C4=C(O)C=CC=C14)O)O
3. CO[C@@H](C(=O)N1Cc2[nH]nc(NC(=O)c3ccc(N4CCN(C)CC4)cc3)c2C1)c1ccccc1
4. Cc1ccc(C(=O)Nc2cccc(C(F)(F)F)c2)cc1Nc1nc(-c2cccnc2)nc2c1cnn2C
5. CC(=O)OC[C@@H]1O[C@H]([C@H](OC(C)=O)[C@@H]1OC(C)=O)N2\C=C/C(=O)NC2=O
6. CC1(C)SCCN([S+](=O)([O-])c2ccc(OCC#CCO)cc2)[C@H]1C(=O)NO

*A*
1. 93.1
2. 113
3. 50.8
4. 84
5. 71.8
6. 95.1

I need cell viability for every entry listed below, if you could help.
1. Oc1cc(-c2nc(-c3ccccc3)[nH]c2-c2ccncc2)ccc1Cl
2. Clc2cccc(Cl)c2\N=C1/NCCN1

*A*
[65.7, 121]

###

# Tested on: NOMO1
# Assay Summary: cell viability relative to DMSO control; higher = less cytotoxic
# Assay Setup: HPLM + 10% dialyzed FBS; 48 h; 0.00702 µM
Reported Metric: cell viability

I need cell viability for every entry listed below, if you could help.
1. CC[C@H]1OC(=O)[C@H](C)[C@@H](O[C@H]2C[C@@](C)(OC)[C@@H](O)[C@H](C)O2)[C@H](C)[C@@H](O[C@@H]2O[C@H](C)C[C@H](N(C)C)[C@H]2O)[C@](C)(OC)C[C@@H](C)C(=O)[C@H](C)[C@@H](O)[C@]1(C)O
2. COc1ccc(CCC(=O)c2c(O)cc(O[C@@H]3O[C@H](CO)[C@@H](O)[C@H](O)[C@H]3O[C@@H]3O[C@@H](C)[C@H](O)[C@@H](O)[C@H]3O)cc2O)cc1O
3. C=CC(=O)Nc1cc2c(Nc3ccc(F)c(Cl)c3)ncnc2cc1C#CC(C)(C)N1CCN(C)CC1
4. NC(=O)c1cccc(-c2cc(Nc3ccc(OC(F)(F)F)cc3)ncn2)c1
5. O=C(c1cncc(Br)c1)N1CCC(N2CCCC2)CC1
6. CN(C)c1nc(Cc2ccc(NC(=O)c3ccc(C(F)(F)F)cc3)cc2)nc(N(C)C)c1CC(=O)O
7. CCC(CCCC)COC(=O)C(\C#N)=C(\c1ccccc1)c2ccccc2 (stereo not drawn)

*A*
["96.8%", "124%", "112%", "96%", "124%", "107%", "84%"]

response.value for Nc1ccc(C(=O)Nc2cccc(-c3nc(N4CCOCC4)c4oc5ncccc5c4n3)c2)cn1 (field: cell viability) = 135%

###

# Tested on: SEM cells
# Assay Summary: cell viability relative to DMSO control; higher = less cytotoxic
# Assay Setup: HPLM + 10% dialyzed FBS; 48 h; 0.00702 µM
Exercise: state measured cell viability for each of the molecules provided.
Answers are plain numbers, in %.

INSERT INTO measurements (smiles_code, observed_measurement) VALUES
  ('Oc1cc(-c2nc(-c3ccccc3)[nH]c2-c2ccncc2)ccc1Cl', 118),
  ('c1ccc(CNc2nc(NCc3ccccc3)c3ccccc3n2)cc1', 117),
  ('CC[C@H]1OC(=O)[C@H](C)[C@@H](O[C@H]2C[C@@](C)(OC)[C@@H](O)[C@H](C)O2)[C@H](C)[C@@H](O[C@@H]2O[C@H](C)C[C@H](N(C)C)[C@H]2O)[C@](C)(OC)C[C@@H](C)C(=O)[C@H](C)[C@@H](O)[C@]1(C)O', 98.4);

I need cell viability for every entry listed below, if you could help.
1. Cc1ccc(C(=O)Nc2cccc(C(F)(F)F)c2)cc1Nc1nc(-c2cccnc2)nc2c1cnn2C
2. C[C@]12CC[C@H]3[C@@H](CC(=C)\C4=C\C(=O)\C=C/[C@]34C)[C@@H]1CCC2=O
3. CO[C@@H](C(=O)N1Cc2[nH]nc(NC(=O)c3ccc(N4CCN(C)CC4)cc3)c2C1)c1ccccc1
4. Cc1ccc2nc(NCCN)c3ncc(C)n3c2c1

*A*
1: 89.1; 2: 96.3; 3: 103; 4: 111

###

Exercise: state measured cell viability for each of the compounds provided.
# System: NOMO1
# Assay Summary: cell viability relative to DMSO control; higher = less cytotoxic
# Assay Setup: HPLM + 10% dialyzed FBS; 48 h; 0.19 µM
Give the number first and the unit second.

Check out these entries, answers already filled in.
INSERT INTO results (compound, reported_metric, observed_measurement) VALUES
  ('CCCCCCNC(=O)N1\C=C(F)/C(=O)NC1=O', 'cell viability', '137%'),
  ('Nc1ccc(C(=O)Nc2cccc(-c3nc(N4CCOCC4)c4oc5ncccc5c4n3)c2)cn1', 'cell viability', '122%'),
  ('CO[C@H]1/C=C/O[C@@]2(C)Oc3c(C)c(O)c4c(c3C2=O)C2=NC3(CCN(CC(C)C)CC3)NC2=C(NC(=O)/C(C)=C/C=C/[C@H](C)[C@H](O)[C@@H](C)[C@@H](O)[C@@H](C)[C@H](OC(C)=O)[C@@H]1C)C4=O', 'cell viability', '127%'),
  ('Clc2cccc(Cl)c2\N=C1/NCCN1', 'cell viability', '135%'),
  ('Cc1cc(Nc2ncc3c(n2)N(C)C(=O)N(c2cc(NC(=O)c4cccc(C(F)(F)F)c4)ccc2C)C3)n(C)n1', 'cell viability', '111%'),
  ('Cc1cn2cc(C(=O)N(C)CCO)cc(N[C@@H]3CCOc4cccc(C)c43)c2n1', 'cell viability', '115%');

I need cell viability for every entry listed below, if you could help.
1. Oc1ccc(OCc2ccccc2)cc1
2. CN(C)c1nc(Cc2ccc(NC(=O)c3ccc(C(F)(F)F)cc3)cc2)nc(N(C)C)c1CC(=O)O
3. CCNC(=O)CCC/C=C\C[C@@H]1[C@@H](/C=C/C(O)CCc2ccccc2)[C@@H](O)C[C@@H]1O (stereo not given in full)
4. COc1cc2c(cc1OC)[C@@H]1Cc3ccc(OC)c(OC)c3CN1CC2
5. C/C1=C2/[N]3[Co+]456([OH])<-[N]7=C1[C@@H](CCC(N)=O)C(C)(C)/C7=C/C1=[N]->4C(=C(/C)C4=[N]->5[C@@](C)([C@H]3[C@H](CC(N)=O)[C@@]2(C)CCC(=O)NC[C@@H](C)OP(=O)([O-])O[C@H]2[C@@H](O)[C@@H](n3c[n]->6c5cc(C)c(C)cc53)O[C@@H]2CO)[C@@](C)(CC(N)=O)[C@@H]4CCC(N)=O)/[C@@](C)(CC(N)=O)[C@@H]1CCC(N)=O
6. O=C(c1cncc(Br)c1)N1CCC(N2CCCC2)CC1

*A*
1. 108%
2. 112%
3. 130%
4. 110%
5. 105%
6. 105%
